- measurement target: Mitogen-activated protein kinase 7 (Homo sapiens)
- method notes: Gal4-ERK5 driven luciferase induction – cell-based, HTS, primary screen (AID 1508626);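 further: luciferase driven by Gal4-ERK5 fusion binding five Gal4 sites before minimal TATA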
- measurement setup: HeLa Gal4-ERK5 transactivation, 18 h, at 5 µM
Calls of active or inactive are those of the source.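 How the source made its calls: active means luciferase signal above three times the same-plate solvent-only control wells; inactive means the rest.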
Allowed answers: 1.0 (active), 0.0 (inactive)

O=C(O)CCC(=O)c1ccc(-c2ccccc2)cc1 ... 0.0

// param item: C[N+](C)(C)CCOC(N)=O ; yields the recorded call
0.0

// param item: O=C(O)CCCCCCCC(=O)O ; yields the recorded call
0.0

====

- method notes: JHH-DIPG-1 glioma cell viability, MIPE5.0 library, CellTiter-Glo luminescence, qHTS (AID 1347067);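 further: cells exposed to compound for 48 hours before readout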
- measurement setup: JHH-DIPG-1 glioma viability, CellTiter-Glo ATP luminescence
Results filed as inconclusive are left out. The source made the active and inactive calls. Cut-off not given; nearly all actives show AC50 up to about 26 µM.
Allowed answers: 1 = active, 0 = inactive

Examples with answers:
COC(=O)[C@@H]1[C@H]2C[C@H]3c4[nH]c5ccccc5c4CCN3C[C@@H]2CC[C@@H]1O ... 0
CCn1cc(C(=O)O)c(=O)c2cc(F)c(N3CCNC(C)C3)c(F)c21 (centres undefined) ... 0
Cn1nnc2c(C(N)=O)ncn2c1=O ... 0
Cc1cn[nH]c1 ... 0
CN(C)c1ccc2nc3ccc(=[N+](C)C)cc-3sc2c1 ... 1
NNc1nncc2ccccc12 ... 0
C[C@@H]1CN(c2c(F)c(N)c3c(=O)c(C(=O)O)cn(C4CC4)c3c2F)C[C@H](C)N1 ... 0
COc1ccccc1N1CCN(CC(O)COc2cccc3ccccc23)CC1 (centres undefined) ... 0

// param item: Nc1nc(N)nc(-c2cc(Cl)ccc2Cl)n1 ; yields the recorded call
0

// param item: CC(=O)Oc1ccccc1C(=O)O ; yields the recorded call
0

// param item: O=c1oc2cc(O)ccc2s1 ; yields the recorded call
0

====

- method notes: drug combination growth inhibition, ovarian cancer – cell-based, oncology-focused library, rucaparib conditional, profiling panel (AID 1508598)
- measurement setup: patient-derived ovarian cancer cells, CellTiter-Glo viability, 144 h; at 0.000305 µM; OCI-P5x cells; without rucaparib; hits give low values
measured metric: viability (%)
Record the value in %, omitting the unit from your answer.

Give reported viability value for CN(Cc1cnc2nc(N)nc(N)c2n1)c1ccc(C(=O)N[C@@H](CCC(=O)O)C(=O)O)cc1
112

Give reported viability value for CC(C)(C#N)c1cc(Cn2cncn2)cc(C(C)(C)C#N)c1
90.6

Give reported viability value for Cc1cc2c(C(C)C)c(O)c(O)c(C=O)c2c(O)c1-c1c(C)cc2c(C(C)C)c(O)c(O)c(C=O)c2c1O
103

====

- method notes: growth inhibition of GSK3B-pretreated HCT116 cells – cell-based, CellTiter-Glo, 0.2 to 20 µM (AID 1117336)
- measurement setup: HCT116 viability after GSK3B inhibitor, at 20 µM
Activity calls are given as the source filed them.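 Rule for the calls: active = compounds lowering colon cancer cell viability after pretreatment blocking the GSK3B kinase; inactive = the rest.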
Allowed answers: true (1) (active), false (0) (inactive)

Examples with answers:
Nc1nc(=S)c2[nH]cnc2[nH]1 ... true (1)
O=c1ccc2ccccc2o1 ... false (0)
COc1cc(N)c(Cl)cc1C(=O)NC1CCN(Cc2ccccc2)CC1 ... false (0)
CCN(CC)CCNC(=O)COc1ccc(OC)cc1 ... false (0)
COC(=O)Nc1nc2ccc(S(=O)c3ccccc3)cc2[nH]1 (centres undefined) ... true (1)
CCCCOc1ccc(CC(=O)NO)cc1 ... false (0)
CC1(C)OC(=O)NC1=O ... false (0)
CN(C)CCOC(=O)COc1ccc(Cl)cc1 ... false (0)
Cc1ccnc(NS(=O)(=O)c2ccc(N)cc2)n1 ... false (0)
COc1ccc(NS(=O)(=O)c2ccc(N)cc2)nn1 ... false (0)

// param item: CCN1CCC[C@H]1CNC(=O)c1cc(S(N)(=O)=O)ccc1OC ; yields the recorded call
false (0)

// param item: Cc1ccc(C(=O)c2ccc(CC(=O)O)n2C)cc1 ; yields the recorded call
false (0)

// param item: CCCCC1C(=O)N(c2ccccc2)N(c2ccc(O)cc2)C1=O (centres undefined) ; yields the recorded call
false (0)

// param item: COc1cc2c3cc1Oc1cc(ccc1O)C[C@@H]1c4c(cc(OC)c(O)c4Oc4ccc(cc4)C[C@@H]3N(C)CC2)CC[N+]1(C)C ; yields the recorded call
false (0)

// param item: CC(=O)[C@]1(O)Cc2c(O)c3c(c(O)c2[C@@H](O[C@H]2C[C@H](N)[C@H](O)[C@H](C)O2)C1)C(=O)c1ccccc1C3=O ; yields the recorded call
true (1)

// param item: CCCc1ncc(C[n+]2ccccc2C)c(N)n1 ; yields the recorded call
false (0)

// param item: CC[N+](C)(CC)CCOC(=O)C(O)(c1ccccc1)C1CCCCC1 (centres undefined) ; yields the recorded call
false (0)

// param item: CO[C@@]12[C@H](COC(N)=O)C3=C(C(=O)C(C)=C(N)C3=O)N1C[C@@H]1N[C@@H]12 ; yields the recorded call
true (1)

// param item: O=C1CCc2cc(OCCCCc3nnnn3C3CCCCC3)ccc2N1 ; yields the recorded call
false (0)

// param item: CCCCC(CC)CN=C(N)NC(N)=NCCCCCCN=C(N)NC(N)=NCC(CC)CCCC (centres undefined) ; yields the recorded call
true (1)
